Attribution: paper PMC12860872

Measured Absorbed dose (AD average) Testes by item
# experimental-details: Extrapolated human dosimetry (OLINDA/EXM, ICRP-89 phantoms)
# reported-conditions: ICRP 89 Adult Male, extrapolated
# number only, unit mGy/Mbq dropped from output

As a guide, the following entries are already answered.
1. N#C[C@@H]1CC(F)(F)CN1C(=O)CNC(=O)c1ccnc2ccc(OCCCCNC(=O)CC[C@H](NC(=O)CCC(C(=O)O)N3CCN(CC(=O)[O-])CCN(CC(=O)[O-])CCN(CC(=O)[O-])CC3)C(=O)NCCCCOc3ccc4nccc(C(=O)NCC(=O)N5CC(F)(F)C[C@H]5C#N)c4c3)cc12.[161Tb+3] (stereo partly shown) [[^161Tb]Tb-DOTAGA.Glu.(FAPI)2]	2.65E-02
2. N#C[C@@H]1CC(F)(F)CN1C(=O)CNC(=O)c1ccnc2ccc(OCCCCNC(=O)CC[C@H](NC(=O)CN3CCN(CC(=O)[O-])CCN(CC(=O)[O-])CCN(CC(=O)[O-])CC3)C(=O)NCCCCOc3ccc4nccc(C(=O)NCC(=O)N5CC(F)(F)C[C@H]5C#N)c4c3)cc12.[161Tb+3] [[^161Tb]Tb-DO3A.Glu.(FAPI)2]	2.72E-02
3. N#C[C@@H]1CC(F)(F)CN1C(=O)CNC(=O)c1ccnc2ccc(OCCCCNC(=O)CC[C@H](NC(=O)CN3CCN(CC(=O)[O-])CCN(CC(=O)[O-])CCN(CC(=O)[O-])CC3)C(=O)NCCCCOc3ccc4nccc(C(=O)NCC(=O)N5CC(F)(F)C[C@H]5C#N)c4c3)cc12.[177Lu+3] [[^177Lu]Lu-DO3A.Glu.(FAPI)2]	2.00E-02

Read the next record carefully.
Enquiry: Requested read-out: Absorbed dose (AD average) Testes. Entry: N#C[C@@H]1CC(F)(F)CN1C(=O)CNC(=O)c1ccnc2ccc(OCCCCNC(=O)CC[C@H](NC(=O)CCC(C(=O)O)N3CCN(CC(=O)[O-])CCN(CC(=O)[O-])CCN(CC(=O)[O-])CC3)C(=O)NCCCCOc3ccc4nccc(C(=O)NCC(=O)N5CC(F)(F)C[C@H]5C#N)c4c3)cc12.[177Lu+3] (stereo partly shown) [[^177Lu]Lu-DOTAGA.Glu.(FAPI)2]
Return: 1.95E-02
